Assay: in vitro
Set-up: species or system HB2, HEK293
Conditions: human, ccd841 cells
Exercise: state measured viability at 48 h, 10 µM for each of the compounds provided.
One number for each entry, in %.

compound: O=C(CCl)NC1CCS(=O)(=O)C1 (stereo not drawn)
unit-symbol: %
viability at 48 h, 10 µM: 84.2
--
compound: CC1CCC(NC(=O)CCl)CC1 (stereo not drawn)
unit-symbol: %
viability at 48 h, 10 µM: 86.2
--
compound: O=C(CCl)NC1CCCCNC1=O (stereo not drawn)
unit-symbol: %
viability at 48 h, 10 µM: 103

Need viability at 48 h, 10 µM for each of these compounds.
1. O=C(CCl)NC(=O)Cc1ccccc1
2. C=CC(=O)N1CCN(C(=O)c2ccc(Br)o2)CC1
3. C#CCN1CCN(C(=O)CCl)CC1.Cl
4. C=CC(=O)N1CCCC(c2nc(-c3cccc(F)c3)no2)C1 (stereo not drawn)
5. CC1CCc2c(sc(NC(=O)CCl)c2C(N)=O)C1 (stereo not drawn)
6. O=C(CCl)Nc1ccccc1N1CCOCC1

[117, 102, 84.9, 97.4, 63.2, 90.7]

Need viability at 48 h, 10 µM for each of these compounds.
1. O=C(CCl)NCC1COc2ccccc2O1 (stereo not drawn)
2. O=C(CCl)Nc1nc2ccc(Br)cc2s1
3. O=C(CCl)Nc1ccc(F)c(F)c1

1: 76.2; 2: 92.7; 3: 30.4

* * *

Exercise: state measured viability at 48 h, 10 µM for each of the compounds provided.
Assay: in vitro
Design: species or system HB2, CCD841
Conditions: human, hek293 cells
Answers are plain numbers, in %.

Check out these entries, answers already filled in.
compound: C=CC(=O)N(C)CC(=O)N1c2ccccc2NC(=O)CC1C (stereo not drawn) [PCM-0102729]
unit-symbol: %
viability at 48 h, 10 µM: 107
//
compound: C=CC(=O)N1CCOC2(CCc3ccccc32)C1 (stereo not drawn) [PCM-0102439]
unit-symbol: %
viability at 48 h, 10 µM: 92.3
//
compound: O=C(CCl)Nc1ccc2c(c1)OC(F)(F)O2 [PCM-0102738]
unit-symbol: %
viability at 48 h, 10 µM: 14.2
//
compound: C=CC(=O)N1CCC(CN)CC1.Cl [PCM-0102467]
unit-symbol: %
viability at 48 h, 10 µM: 91

Need viability at 48 h, 10 µM for each of these compounds.
1. O=C(CCl)Nc1cc(F)ccc1F [PCM-0102284]
2. CC(C)N(C(=O)CCl)C1CCCCC1 [PCM-0102941]

[17.7, 56.3]

* * *

Assay: in vitro
Design: species or system CCD841, HEK293
Settings: human, hb2 cells, read-out: HB-2 Cells Viability (%)
Decision: viability at 48 h, 10 µM beneath 60% gives label 1; viability at 48 h, 10 µM meeting or exceeding 60% gives label 0.

compound: O=C(CCl)N1CCc2ccccc21
assigned-class: label 1
//
compound: C=CC(=O)N1CCCc2cc(C(=O)O)ccc21
assigned-class: label 0
//
compound: CCC(C)NC(=O)NC(=O)CCl (stereo not shown)
assigned-class: label 0
//
compound: O=C(CCl)NC(=O)c1ccco1
assigned-class: label 0
//
compound: Cc1cc(NC(=O)CCl)ccc1Br
assigned-class: label 1

Does this compound meet the criterion viability at 48 h, 10 µM < 60%? C=CC(=O)Nc1cc(-c2ccnn2C)ccc1C
label 0

Does this compound meet the criterion viability at 48 h, 10 µM < 60%? C=CC(=O)N1Cc2ccc(S(=O)(=O)N(C)C)cc2C1
label 0

Does this compound meet the criterion viability at 48 h, 10 µM < 60%? O=C(CCl)NCc1ccc(F)cc1
label 0

* * *

Target: NUDT7 (Homo sapiens)
Construct: residues 14-235, E. coli, pNIC28-Bsa4, N-terminal His6 tag removed by TEV, construct 26672 Da
Sequence (P0C024 14-235): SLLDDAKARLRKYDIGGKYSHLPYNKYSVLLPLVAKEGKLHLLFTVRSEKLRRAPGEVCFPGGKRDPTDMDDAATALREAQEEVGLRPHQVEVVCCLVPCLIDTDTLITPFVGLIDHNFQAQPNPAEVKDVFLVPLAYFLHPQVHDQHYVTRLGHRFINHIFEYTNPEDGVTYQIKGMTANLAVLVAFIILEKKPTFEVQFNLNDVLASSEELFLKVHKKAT
Design: Intact protein LC/MS covalent labelling, fragments in pools of five, 200 uM each, 4 °C
Conditions: 24 h, 4 °C, pool of five; 200 µM; covalent
Exercise: state measured NUDT7 for each of the compounds provided.
Give bare numbers.

Check out these entries, answers already filled in.
compound: CN(Cc1ccc(Cl)s1)C(=O)CCl
measurement: 0.29
--
compound: O=C(CCl)NCc1ccccc1F
measurement: 0

Need NUDT7 for each of these compounds.
1. Cn1cccc1C(=O)NC(=O)CCl
2. O=C(CCl)NC1CCCCCCC1
3. CC(NC(=O)CCl)c1ccco1 (stereo not drawn)
4. CC1CCN(C(=O)CCl)c2ccccc2S1 (stereo not drawn)

1: 0; 2: 0; 3: 0.14; 4: 0.32

* * *

Target: NNMT (hNNMT) (Homo sapiens)
Construct: wild type, N-terminal His6 tag kept (no cleavage described), E. coli, construct 31248 Da
Sequence (P40261 whole entry): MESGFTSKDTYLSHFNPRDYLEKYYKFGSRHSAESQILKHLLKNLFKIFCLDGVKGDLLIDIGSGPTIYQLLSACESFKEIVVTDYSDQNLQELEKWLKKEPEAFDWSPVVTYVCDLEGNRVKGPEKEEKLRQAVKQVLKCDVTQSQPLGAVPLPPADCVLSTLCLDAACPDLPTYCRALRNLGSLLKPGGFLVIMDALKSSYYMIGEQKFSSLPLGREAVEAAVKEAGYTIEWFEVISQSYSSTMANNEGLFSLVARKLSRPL
Parameters: Intact protein LC/MS covalent labelling, fragments in pools of five, 200 uM each, 4 °C
Conditions: 24 h, 4 °C, pool of five; 200 µM; covalent
readout-name: NNMT

Check out these entries, answers already filled in.
compound: COC(=O)NC(=O)CCl [PCM-0102791]
measurement: 0

compound: Cc1oc(NC(=O)CCl)c(C#N)c1C [PCM-0102337]
measurement: 0.53

compound: COC(=O)c1c(NC(=O)CCl)sc2c1CCC(C)C2 (stereo not drawn) [PCM-0102418]
measurement: 0.8

compound: C=CC(=O)N1CCC(CN)CC1.Cl [PCM-0102467]
measurement: 0

compound: O=C(CCl)NC(=O)C1COc2ccccc2O1 (stereo not drawn) [PCM-0102462]
measurement: 0

compound: CS(=O)(=O)c1cccc(NC(=O)CCl)c1 [PCM-0102407]
measurement: 0

compound: C=CC(=O)N1CC=C(C(F)(F)F)CC1 [PCM-0102685]
measurement: 0.17

compound: CC1CCC2(CC1)NC(=O)N(NC(=O)CCl)C2=O (stereo not drawn) [PCM-0102666]
measurement: 0

compound: COc1ccc(Cl)cc1C(=O)NNC(=O)CCl [PCM-0102763]
measurement: 0

compound: C=CC(=O)Nc1ccc(N(C)C)cc1 [PCM-0102461]
measurement: 0.2

Need NNMT for each of these compounds.
1. COc1ccc(C(=O)NC(=O)CCl)cc1 [PCM-0102454]
2. CC(NC(=O)CCl)c1ccccc1 (stereo not drawn) [PCM-0102128]

1. 0.36
2. 0

* * *

Target: PCAF (Homo sapiens, UniProt Q92831)
Construct: gene KAT2B
Sequence (Q92831 whole entry): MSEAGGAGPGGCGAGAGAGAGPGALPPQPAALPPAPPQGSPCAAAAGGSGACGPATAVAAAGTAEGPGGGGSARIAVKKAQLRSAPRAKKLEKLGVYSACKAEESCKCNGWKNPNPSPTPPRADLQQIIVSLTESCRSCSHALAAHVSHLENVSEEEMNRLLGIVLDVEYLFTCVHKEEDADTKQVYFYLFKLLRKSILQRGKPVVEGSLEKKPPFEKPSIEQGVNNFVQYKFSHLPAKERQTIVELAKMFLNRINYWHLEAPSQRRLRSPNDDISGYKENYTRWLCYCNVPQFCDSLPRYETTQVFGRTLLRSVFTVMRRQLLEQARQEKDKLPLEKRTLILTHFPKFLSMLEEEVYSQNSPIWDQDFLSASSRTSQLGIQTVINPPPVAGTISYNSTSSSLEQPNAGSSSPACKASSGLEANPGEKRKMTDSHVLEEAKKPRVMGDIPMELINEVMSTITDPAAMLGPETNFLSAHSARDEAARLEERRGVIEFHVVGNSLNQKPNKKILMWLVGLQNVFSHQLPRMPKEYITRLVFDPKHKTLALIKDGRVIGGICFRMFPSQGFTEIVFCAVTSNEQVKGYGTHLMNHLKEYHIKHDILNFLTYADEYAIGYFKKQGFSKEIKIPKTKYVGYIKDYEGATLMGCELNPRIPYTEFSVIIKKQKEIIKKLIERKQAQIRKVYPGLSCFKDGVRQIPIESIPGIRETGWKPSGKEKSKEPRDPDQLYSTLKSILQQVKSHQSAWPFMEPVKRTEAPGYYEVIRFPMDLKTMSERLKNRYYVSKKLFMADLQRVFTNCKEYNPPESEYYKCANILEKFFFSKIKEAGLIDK
Set-up: Intact protein LC/MS covalent labelling, fragments in pools of five, 200 uM each, 4 °C
Details: 24 h, 4 °C, pool of five; 200 µM; covalent
Exercise: state measured PCAF for each of the compounds provided.

Check out these entries, answers already filled in.
compound: O=C(CCl)Nc1ccc(O)cc1
readout-name: PCAF
measurement: 0
//
compound: C=CC(=O)N1CC2CC3CC(C2)CC1C3
readout-name: PCAF
measurement: 0
//
compound: C=CC(=O)NC(C)c1ccc(C(F)(F)F)nc1Cl (centres unmarked)
readout-name: PCAF
measurement: 0
//
compound: O=C(CCl)NNC(=O)c1cccs1
readout-name: PCAF
measurement: 0
//
compound: N#CC(c1cccs1)N1CCN(C(=O)CCl)CC1 (centres unmarked)
readout-name: PCAF
measurement: 0

Need PCAF for each of these compounds.
1. CNC(=O)C1CCN(C(=O)CCl)CC1
2. C=CC(=O)NC1CCC(N2CCCS2(=O)=O)CC1 (centres unmarked)
3. O=C(CCl)Nc1cccc(Cl)c1Cl
4. O=C(CCl)NC1C2CC3CC(C2)CC1C3 (centres unmarked)

0
0
0
0

Need PCAF for each of these compounds.
1. C=CC(=O)NC1(CO)Cc2ccccc2C1
2. O=C(CCl)Nc1cccc(C(=O)N2CCSCC2)c1
3. N#CC1(N2CCN(C(=O)CCl)CC2)CCCCC1
4. Cc1ccc(CNC(=O)CCl)cc1
5. Cc1ccsc1CN(C)C(=O)CCl
6. O=C(CCl)N1CCC(C(=O)N2CCCCC2)CC1

0
0
0
0
0
0

Need PCAF for each of these compounds.
1. O=C(CCl)Nc1cc(Cl)ccc1F
2. COC(=O)c1c(NC(=O)CCl)sc(C)c1C
3. C=CC(=O)NC1(C(N)=O)CCCOC1 (centres unmarked)

1. 0
2. 0
3. 0

* * *

Molecular target: OTUB2 (OTUB2A) (Homo sapiens, UniProt Q96DC9)
Construct: full length residues 1-234, E. coli BL21(DE3)-R3, His tag removed by TEV, construct 27312 Da
Sequence (Q96DC9 whole entry, the tested form may be a part): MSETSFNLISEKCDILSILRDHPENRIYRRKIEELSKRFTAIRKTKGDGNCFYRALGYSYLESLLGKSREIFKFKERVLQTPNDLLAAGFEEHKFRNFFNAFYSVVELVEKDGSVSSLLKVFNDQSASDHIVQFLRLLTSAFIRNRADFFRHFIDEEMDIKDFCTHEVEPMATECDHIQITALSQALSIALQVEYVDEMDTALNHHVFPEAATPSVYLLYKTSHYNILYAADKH
Design: Intact protein LC/MS covalent labelling, fragments in pools of five, 200 uM each, 4 °C
Details: 24 h, 4 °C, pool of five; 200 µM; covalent
Decision: OTUB2 beneath 0.07 gives MET; OTUB2 meeting or exceeding 0.07 gives NOT MET.

Does this molecule meet the criterion OTUB2 < 0.07? Cc1ccc(CN2CCCN(C(=O)CCl)CC2)cc1.Cl
MET
